Data provenance is PubChem BioAssay (NCI).

# Tested on: UO-31 renal
# protocol: NCI-60 one-dose screen, 48 h
# setup.conditions: 10 µM unless noted
About 83,000 compounds went through this panel and 20% of them were active in at least one assay; those are over-represented in the sample as a whole. Active and inactive are the calls of the source. The calls were made as follows: active = growth percent below 10; inactive = the rest.
Labels: Yes = active, No = inactive

molecule	class.assignment
CCNCCNc1cc(-c2ccc(Cl)cc2)c(C#N)c2nc3ccccc3n12	Yes
CC(C)OC(=O)NNC(=O)c1ccncc1	No
Cc1cc2c(F)c(Oc3ncnc(Nc4ccc(N5C[C@@H](C)N[C@@H](C)C5)cc4)c3C#N)cc(F)c2[nH]1	No
Cc1[nH]c(-c2nc3ccccc3[nH]2)c(C)c1C(=O)N1CCOCC1	No
COC(=O)/C(=C\c1ccc(OC)cc1)C(=O)N1c2ccccc2Sc2ccccc21	No
CC(C)OC(=O)OCOP(=O)(OCOC(=O)OC(C)C)C1CCCN(O)C1=O (centres undefined)	Yes
C=C(CNCCc1ccc(O)cc1)[C@@H]1CC[C@]2(COC3CCCCO3)CC[C@]3(C)[C@H](CC[C@@H]4[C@@]5(C)CCC(N)C(C)(C)[C@@H]5CC[C@]43C)[C@@H]12 (some centres undefined)	Yes
O=c1[nH]c(NCc2nnnn2-c2ccc(Br)cc2)nc2sc3c(c12)CCCC3	No
N#Cc1c(NC(=O)c2cccc(C(F)(F)F)c2)sc2c1CCC(=O)C2	Yes

====

# Test system: ACHN renal
# protocol: NCI-60 one-dose screen, 48 h
# setup.conditions: 10 µM unless noted
This is part of a sample that, as a whole, favours compounds with a hit. Of some 83,000 tested, about 20% had one in any assay. The source made the active and inactive calls. The calls were made as follows: active = growth percent below 10; inactive = the rest.
Labels: active, inactive

> print(dat)
                                    molecule  class.assignment
 1  O=C1CSC(c2ccccc2O)N1c1nnc(Cn2cnnc2)o1 (stereo unspecified)          inactive
 2  Clc1ccc2c(NCCCN3CCN(c4nc(-n5ccnc5)nc5ccccc45)CC3)ccnc2c1          inactive
 3                   Cc1ccc(C)c2c1C(=O)OC2=O          inactive
 4  COc1cc2c(c(OC)c1OC)C(=O)/C(=C/c1cc(C)c(O)c(C)c1)S2          inactive
 5  Cl.Fc1c[c-]c(-c2ccccn2)c(F)c1.[Pt].c1ccc([PH+](c2ccccc2)c2ccccc2[PH+](c2ccccc2)c2ccccc2)cc1            active
 6  CC(=[N-])N1CCC[C@@H](Nc2c3ccccc3nc3ccccc23)C1.[Cl][Pt].[NH-]CCC[NH-]            active
 7              Cc1cn(C2CCCCC2)c(=O)[nH]c1=O          inactive
 8  CC(C)(C)Nc1c(-c2c3ccccc3cc3ccccc23)nc2ccccn12          inactive
 9  CC(C)(C)CC(C)(C)Nc1c(-c2ccc(-c3ccccc3)cc2)nc2cnccn12          inactive
10  O=[N+]([O-])c1ccccc1C(O)Cc1ccc2ccccc2n1 (stereo unspecified)          inactive
11  O=c1[nH]c(=O)n(C2CC(O)C(CO)O2)cc1CO (stereo unspecified)          inactive
12  CN(C)c1ccc(/C=C2\C=C(c3ccccc3)N(CCc3ccccc3)C2=O)cc1          inactive
13  CN(CCCCCCCCNc1ccnc2ccccc12)Cc1ccc(-c2ccc(-c3ccc(C#N)cc3)s2)cc1            active
14     CC(C)n1nc(C#Cc2cccc(O)c2)c2c(N)ncnc21            active
15  COc1cc(/C=C/c2nc(Nc3ccc(S(=O)(=O)Nc4cc(C)on4)cc3)c3ccccc3n2)ccc1O          inactive
16   Nc1ccc2c(S(=O)(=O)O)ccc(S(=O)(=O)O)c2c1          inactive
17  COc1cc(-c2ncn(/C=C\c3nnco3)n2)cc(C(F)(F)F)c1          inactive
18  Cc1nc(Nc2ccc(NC(=S)Nc3ccccc3)cc2)nc2nc(SCc3ccccc3)[nH]c(=O)c12          inactive
19  CCn1c(Sc2nnc(NC(=O)CCN3CCCC3)s2)nc2c1c(=O)n(C)c(=O)n2C          inactive
20   COc1ccc(/C=C2\COc3ccc(O)cc3C2=O)c(OC)c1          inactive
21  Cc1cc(C(c2ccccc2)c2ccccc2)ccc1NS(=O)(=O)c1ccccc1          inactive
22  O=C(/C=C/C12c3ccccc3C(c3ccccc31)C1C(=O)N(c3ccccc3)C(=O)C12)c1ccc(Cl)cc1 (stereo unspecified)            active
23  Cc1csc(NC(=O)c2sc3nc(-c4cccs4)ccc3c2N)n1          inactive
24                            NC(N)=N/N=C/CO          inactive
25                   CC(C)(C)N1CC(OC(N)=O)C1          inactive
26  Nc1ccc(S(=O)(=O)Nc2ccsc2-c2nc(-c3ccccc3)no2)cc1          inactive
27         N#Cc1c(NC(=O)c2ccccc2I)sc2c1CCCC2          inactive
28          NC(=O)CC1(O)C=C(Br)C(=O)C(Br)=C1            active
29  N#Cc1c(Oc2ccc([N+](=O)[O-])cc2)nc2sc3cc(Cl)ccc3n2c1=N          inactive
30      c1ccc2[nH]c(SSc3nc4ncncc4[nH]3)nc2c1          inactive
31  COc1cc(C2CC(c3ccc(Nc4nc(Nc5ccc(F)cc5)nc(Nc5ccc(Cl)cc5)n4)cc3)=NN2C(C)=O)cc(OC)c1OC (stereo unspecified)          inactive
32                        NC(=S)N/N=C/C(=O)O          inactive
33  Cc1[nH]c(-c2nc3ccccc3[nH]2)c(C)c1C(=O)NNc1ccc(Cl)cc1          inactive
34  CC(=O)NCC(=O)Nc1ccc(-c2nnc3ccccn23)nc1.CC(=O)NCC(=O)Nc1ccc(-c2nnc3ccccn23)nc1.[Pt+2]          inactive
35  Cc1nn(-c2ccccc2)c2c1C(c1ccc([N+](=O)[O-])cc1)C(C#N)=C(N)O2 (stereo unspecified)          inactive
36  O=C1Nc2ccccc2/C1=N/N=C/c1ccc(OC2OC(CO)C(O)C(O)C2O)cc1 (stereo unspecified)          inactive
37  CN(C)CCn1cc(-c2ccc3c(Nc4ccc(CC(=O)Nc5cccc(F)c5)cc4)ncnc3c2)cn1            active
38  C=CCO[C@H]1CO[C@H]2[C@@H]1OC[C@@H]2Oc1ccc(Nc2ccnc(Nc3ccc(O[C@H]4CO[C@H]5[C@@H]4OC[C@@H]5OCC=C)c(Cl)c3)n2)cc1Cl          inactive
39        Cc1c2c(cn1Cc1ccccc1)CCc1cn(C)nc1-2          inactive
40  COc1ccc(OC)c(Nc2nc3nonc3nc2Nc2cccc(Br)c2)c1            active
41       N#Cc1c(N)nc2c(nnn2-c2cccc(Br)c2)c1N          inactive

====

# System: HCC-2998 colon
# protocol: NCI-60 one-dose screen, 48 h (100 = growth as untreated, 0 = no growth, -100 = all killed)
# setup.conditions: 10 µM unless noted
This is part of a sample that, as a whole, favours compounds with a hit. Of some 83,000 tested, about 20% had one in any assay. Active and inactive are the calls of the source. How the source made its calls: active means growth percent below 10; inactive means the rest.

compound	growth
Clc1cnc(Nc2ccc(OCCN3CCCC3)cc2)nc1NCc1ccco1	59.1% (inactive)
Cc1nn(Cc2ccccc2)cc1C(=O)Nc1sc2c(c1C(N)=O)CCC(=O)C2	80.6% (inactive)
CS(=O)(=O)c1ccc(N/N=C/c2c(-c3ccc(S(C)(=O)=O)cc3)[nH]c3ccc(F)cc23)cc1	52.3% (inactive)
c1ccc2c(c1)nc(-n1ccnc1)c1nc3ccccc3n12	76% (inactive)
COc1cc(-c2cccc([N+](=O)[O-])c2)c(-c2nc(-c3ccccc3)c(-c3ccccc3)n2C2CC2)cc1OC	81.2% (inactive)
O=C(NCCOCCOCCNc1cccc2c1C(=O)N(C1CCCNC1=O)C2=O)c1cc2c(o1)C(=O)c1ccccc1C2=O (centres undefined)	-56.2% (active)
CC(=O)c1cc2c(o1)C(=O)c1ccccc1C2=O	-87.8% (active)
C=CC(=O)Nc1cccc(C)c1Nc1cc(-c2cccnc2Cc2c(C)c(OC)cc(OC)c2C)ncn1	71.1% (inactive)
COc1ccc(-c2cc(-c3ccc(Nc4nc(Nc5ccccc5)nc(Nc5ccc(Cl)cc5)n4)cc3)nc(N)n2)cc1	-7.72% (active)
Cn1nnnc1-c1ccc(N)cc1	100% (inactive)
COc1c(C)cnc(CSc2nc(-c3ccc(C)cc3)cn2-c2ccc(Cl)cc2)c1C	106% (inactive)
Cc1nc(Nc2ccccn2)sc1C(=O)/C=C/c1ccc(Br)cc1	103% (inactive)
CCN(CC)CCCNC(=O)c1ccc(N)cc1O	78.8% (inactive)
C=C1c2c(C)nn(-c3ccc(S(N)(=O)=O)cc3)c2N(C)C23CC1C1(C)c4c(C)nn(-c5ccc(S(N)(=O)=O)cc5)c4N(C)C(C)(CC12)C3 (centres undefined)	47% (inactive)
O=C1/C(=C/c2ccc([N+](=O)[O-])cc2)COc2ccc(O)c(O)c21	-77.8% (active)
Cn1cc(-c2ccc3nc(-c4ccc(CC(=O)Nc5cc(C(C)(C)C)no5)cc4)cnc3c2)cn1	47.3% [30 µM] (inactive)
CCNCCNc1cc(-c2ccc(Cl)cc2)c(C#N)c2nc3ccccc3n12	4.11% (active)
Clc1ccc2c(NCCCN3CCN(c4nc(N5CCOCC5)nc5ccccc45)CC3)ccnc2c1	-57.5% (active)
C[C@@H]1C(=O)N(C[C@@H](Cc2ccccc2)NC(=O)OCc2ccccc2)[C@]1(Cc1ccccc1)C(=O)OCc1ccccc1	72.8% (inactive)
